Reported values of First screening IR (inhibition rate) for individual entries
molecular target: human recombinant Yes [a.a. 2–543 (end)] (Homo sapiens); construct: human recombinant Yes [a.a; 2–543 (end)]; purchased BPS Bioscience 40488; experiment: ADP-Glo kinase assay, inhibition rates of Yes phosphorylation activity (first and second screening); assay type: biochemical; conditions: first screening; mean of n = 4 wells; 10 μmol L−1 compound
Sequence (P07947 2-543): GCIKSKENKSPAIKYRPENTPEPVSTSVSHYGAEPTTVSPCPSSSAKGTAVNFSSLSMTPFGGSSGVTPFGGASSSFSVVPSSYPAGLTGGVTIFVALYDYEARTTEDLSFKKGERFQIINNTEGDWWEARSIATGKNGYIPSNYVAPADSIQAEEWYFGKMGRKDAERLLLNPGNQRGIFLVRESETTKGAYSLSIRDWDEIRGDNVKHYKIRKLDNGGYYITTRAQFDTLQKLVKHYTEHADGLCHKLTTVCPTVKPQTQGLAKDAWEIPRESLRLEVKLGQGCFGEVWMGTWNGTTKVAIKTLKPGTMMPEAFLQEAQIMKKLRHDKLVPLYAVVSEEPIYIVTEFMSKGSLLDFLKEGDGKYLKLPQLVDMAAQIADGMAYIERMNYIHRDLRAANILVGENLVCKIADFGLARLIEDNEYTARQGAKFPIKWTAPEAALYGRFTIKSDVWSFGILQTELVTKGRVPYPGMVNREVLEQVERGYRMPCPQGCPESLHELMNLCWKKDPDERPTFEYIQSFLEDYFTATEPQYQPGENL

{"COMPOUND": "CC(C)(C)Cc1cc(NC(=O)c2cnn(-c3ccccc3Cl)c2)n[nH]1 [Compound Z1262045135]", "First screening IR (inhibition rate) (%)": 70}
{"COMPOUND": "Cc1n[nH]c(C)c1C(C)C(=O)NCC(c1cccc(Cl)c1)N1CCCC1 (stereo not drawn) [Compound Z1172045589]", "First screening IR (inhibition rate) (%)": 9}
{"COMPOUND": "COc1ccc(Nc2nc(N3CCCCC3)nc(N)c2[N+](=O)[O-])cc1 [Compound Z245295930]", "First screening IR (inhibition rate) (%)": 8}
{"COMPOUND": "FC(F)(F)c1nc(N2CCOCC2)c2cnn(Cc3ccccc3)c2n1 [Compound Z108567148]", "First screening IR (inhibition rate) (%)": -2}
{"COMPOUND": "CN1C/C(=C/c2ccc3c(c2)OCO3)c2nc3ccccc3c(C(=O)O)c2C1 [Compound Z46114673]", "First screening IR (inhibition rate) (%)": -9}
{"COMPOUND": "O=C1C(=O)N(CCCn2ccnc2)C(c2ccc(F)cc2)/C1=C(\\O)c1ccc(Cl)cc1 (stereo not drawn) [Compound Z57239976]", "First screening IR (inhibition rate) (%)": -5}
{"COMPOUND": "Cc1cc(OCC(=O)NC(C)c2ccc(-n3ccnc3)cc2)ccc1C(C)C (stereo not drawn) [Compound Z27305591]", "First screening IR (inhibition rate) (%)": -7}
{"COMPOUND": "Fc1ccccc1-c1nc(SCc2cn3ccccc3n2)n[nH]1 [Compound Z17356722]", "First screening IR (inhibition rate) (%)": 0}
{"COMPOUND": "O=C(CSc1nc2ccccc2[nH]1)NC(=O)NCc1ccccc1 [Compound Z19649872]", "First screening IR (inhibition rate) (%)": 7}
{"COMPOUND": "Cc1noc(C)c1CSc1ncnc2sc3c(c12)CCC(C)C3 (stereo not drawn) [Compound Z16316201]", "First screening IR (inhibition rate) (%)": -8}
{"COMPOUND": "Cc1noc(C)c1CCC(=O)Nc1nc2cc(C(F)(F)F)ccc2n1Cc1ccco1 [Compound Z193270258]", "First screening IR (inhibition rate) (%)": 0}
{"COMPOUND": "CNS(=O)(=O)c1cccc(S(=O)(=O)N(C)C)c1 [Compound Z285953204]", "First screening IR (inhibition rate) (%)": 2}
{"COMPOUND": "Cc1nc(C2CCCN(C(=O)c3cncc(-c4ccc5c(c4)CCO5)c3)C2)n[nH]1 (stereo not drawn) [Compound Z1464424071]", "First screening IR (inhibition rate) (%)": -4}
{"COMPOUND": "CC(Sc1ncn(-c2ccccc2)n1)c1nc(N)nc(N(C)C)n1 (stereo not drawn) [Compound Z317369924]", "First screening IR (inhibition rate) (%)": -4}
{"COMPOUND": "O=C(NS(=O)(=O)Cc1ccc(Cl)nc1)C1CCc2cn[nH]c2C1 (stereo not drawn) [Compound Z1291253354]", "First screening IR (inhibition rate) (%)": -13}
{"COMPOUND": "NS(=O)(=O)c1ccc(CCNC(=O)CSc2nnc(-c3ccccc3F)n2CCc2ccccc2)cc1 [Compound Z16426742]", "First screening IR (inhibition rate) (%)": -1}
{"COMPOUND": "CC1(C)CN(S(=O)(=O)C2CS(=O)(=O)c3ccccc32)CCO1 (stereo not drawn) [Compound Z1031114832]", "First screening IR (inhibition rate) (%)": -4}
{"COMPOUND": "Cc1ccc(CNC(C)(CO)c2cccc(C(F)(F)F)c2)nc1 (stereo not drawn) [Compound Z1426135114]", "First screening IR (inhibition rate) (%)": 10}
